bioavailability listing for selected compounds.
test: Oral bioavailability in human; settings: in vivo
Answer with a number only, understood to be in %.

Qu. Return bioavailability for the following compound: COc1cccc2c1C(=O)c1c(O)c3c(c(O)c1C2=O)C[C@@](O)(C(C)=O)C[C@@H]3O[C@H]1C[C@H](N)[C@H](O)[C@H](C)O1
Ans. 0

Qu. Return bioavailability for the following compound: CCn1cc(C(=O)O)c(=O)c2cc(F)c(N3CCNCC3)nc21
Ans. 89

Qu. Return bioavailability for the following compound: CC1COc2c(N3CCN(C)CC3)c(F)cc3c(=O)c(C(=O)O)cn1c23 (stereo not drawn)
Ans. 90

Consider the record given below.
Qu. Return bioavailability for the following compound: Nc1ccc(O)c(C(=O)O)c1
Ans. 28

* * *

test: Oral bioavailability in human; settings: in vivo
Note to self: class = bucket of bioavailability, per bottom bin (below 60%), middle bin (60% to below 90%), top bin (90% or more)

Past entries and their recorded results:
Qu. # bin label for CCn1cc(C(=O)O)c(=O)c2cc(F)c(N3CCN(C)CC3)cc21 [PEFLOXACIN]
Ans. top bin

Qu. # bin label for Cc1cccc(Nc2ccncc2S(=O)(=O)NC(=O)NC(C)C)c1 [TORSEMIDE]
Ans. middle bin

Qu. # bin label for CC1(C)S[C@@H]2[C@H](/N=C/N3CCCCCC3)C(=O)N2[C@H]1C(=O)O [AMDINOCILLIN]
Ans. bottom bin

Qu. # bin label for CCn1cc(C(=O)O)c(=O)c2cc(F)c(N3CCNC(C)C3)c(F)c21 (stereo unspecified) [LOMEFLOXACIN]
Ans. top bin

Qu. # bin label for Nc1ccc(S(=O)(=O)Nc2ncccn2)cc1 [SULFADIAZINE]
Ans. top bin

Further cases:
Qu. # bin label for NC(N)=Nc1nc(CSCCC(N)=NS(N)(=O)=O)cs1 [FAMOTIDINE]
Ans. bottom bin

Qu. # bin label for CCOC(=O)[C@H](CCc1ccccc1)N[C@H]1CCc2ccccc2N(CC(=O)O)C1=O [BENAZEPRIL]
Ans. bottom bin

Qu. # bin label for CC(C)(C)NCC(O)c1cc(O)cc(O)c1 (stereo unspecified) [TERBUTALINE]
Ans. bottom bin

Qu. # bin label for CN(C)c1ccc(O)c2c1C[C@H]1C[C@H]3[C@H](N(C)C)C(O)=C(C(N)=O)C(=O)[C@@]3(O)C(O)=C1C2=O [MINOCYCLINE]
Ans. top bin

Qu. # bin label for Nc1nc(O)c2ncn(COC(CO)CO)c2n1 [GANCICLOVIR]
Ans. bottom bin

Qu. # bin label for CN(C)[C@@H]1C(O)=C(C(N)=O)C(=O)[C@@]2(O)C(O)=C3C(=O)c4c(O)ccc(Cl)c4[C@@H](O)[C@H]3C[C@@H]12 [DEMECLOCYCLINE]
Ans. middle bin

* * *

test: Permeability at pH 6.5 by PAMPA method
Kind request: treat 1 ×10⁻⁶ cm/s as inclusive, so Papp at 1 ×10⁻⁶ cm/s or higher is t, anything lower is f.

Qu. Decide: is the reported value of Papp for CC1(C)S[C@@H]2[C@H](/N=C/N3CCCCCC3)C(=O)N2[C@H]1C(=O)O [AMDINOCILLIN] equal to or greater than 1 ×10⁻⁶ cm/s?
Ans. f

Qu. Decide: is the reported value of Papp for CC(C)(C)NCC(O)c1cc(O)cc(O)c1 (configuration not stated) [TERBUTALINE] equal to or greater than 1 ×10⁻⁶ cm/s?
Ans. t

Qu. Decide: is the reported value of Papp for CC(C)(O/N=C(\C(=O)N[C@@H]1C(=O)N2C(C(=O)[O-])=C(C[n+]3ccccc3)CS[C@H]12)c1csc(N)n1)C(=O)O [CEFTAZIDIME] equal to or greater than 1 ×10⁻⁶ cm/s?
Ans. f

Qu. Decide: is the reported value of Papp for Cc1cccc(Nc2ccncc2S(=O)(=O)NC(=O)NC(C)C)c1 [TORSEMIDE] equal to or greater than 1 ×10⁻⁶ cm/s?
Ans. t

Qu. Decide: is the reported value of Papp for CN(C)[C@@H]1C(O)=C(C(N)=O)C(=O)[C@@]2(O)C(O)=C3C(=O)c4c(O)ccc(Cl)c4[C@@](C)(O)[C@H]3C[C@@H]12 [CHLORTETRACYCLINE] equal to or greater than 1 ×10⁻⁶ cm/s?
Ans. t

Data origin: ChEMBL document CHEMBL1156784
